# protocol description: Oral bioavailability in Sprague-Dawley rat at 10 mg/kg by LC-MS/MS analysis
# Format: ADME, organism-based
# settings: in vivo
endpoint label: bioavailability (%)

{"smiles input": "CC(=O)N1CC2(CC(Nc3cc4c(cn3)C3(CC3)CN(C[C@H](O)CN3CCc5ccccc5C3)C4=O)C2)C1", "observed value": 26.7}
{"smiles input": "CC(=O)N1CCC(Nc2cc(C(=O)NC[C@H](O)CN3CCc4ccccc4C3)ncn2)CC1", "observed value": 13.5}
{"smiles input": "CC(=O)N1CCC(Nc2ccc3c(c2)C(=O)N(C[C@H](O)CN2CCc4ccccc4C2)CC32CCC2)CC1", "observed value": 23.4}

(a) CC(=O)N1CCC(Nc2cc3c(cn2)C2(CC2)CN(C[C@H](O)CN2CCc4ccccc4C2)C3=O)CC1
(b) CC(=O)N1CCC(Nc2ccc3c(c2)C(=O)N(C[C@H](O)CN2CCc4ccccc4C2)CC32CCCC2)CC1
(c) CC(=O)N1CCC(Nc2ccc3c(c2)C(=O)N(C[C@H](O)CN2CCc4ccccc4C2)CC32CC2)CC1
[Q] With regard to bioavailability, arrange the entries in ascending order, please. Ranked list of labels, please, in the requested order.
[A] a, b, c
(a: 16.4%, b: 24.2%, c: 63.1%)

====

# protocol description: AUC (0 to t) in Sprague-Dawley rat at 2 mg/kg, iv by LC-MS/MS analysis
# Type: ADME, organism-based
# settings: in vivo
endpoint label: AUC(0-t) (ng·h/mL)

Some compounds with recorded AUC(0-t):
{"smiles input": "CC(=O)N1CCC(Nc2ccc3c(c2)C(=O)N(C[C@H](O)CN2CCc4ccccc4C2)CC32CC2)CC1", "observed value": 464}
{"smiles input": "CC(=O)N1CCC(Nc2cc3c(cn2)C2(CC2)CN(C[C@H](O)CN2CCc4ccccc4C2)C3=O)CC1", "observed value": 435}

(a) CC(=O)N1CCC(Nc2cc(C(=O)NC[C@H](O)CN3CCc4ccccc4C3)ncn2)CC1
(b) CC(=O)N1CCC(Nc2ccc3c(c2)C(=O)N(C[C@H](O)CN2CCc4ccccc4C2)CC32CCC2)CC1
[Q] When the recorded AUC(0-t) values are compared, which is smaller: that of a or that of b ? Refer to your chosen item by its label in the answer.
[A] a

====

# target entity: Cytochrome P450 2B6 (Homo sapiens, UniProt P20813)
# Sequence (P20813 whole entry): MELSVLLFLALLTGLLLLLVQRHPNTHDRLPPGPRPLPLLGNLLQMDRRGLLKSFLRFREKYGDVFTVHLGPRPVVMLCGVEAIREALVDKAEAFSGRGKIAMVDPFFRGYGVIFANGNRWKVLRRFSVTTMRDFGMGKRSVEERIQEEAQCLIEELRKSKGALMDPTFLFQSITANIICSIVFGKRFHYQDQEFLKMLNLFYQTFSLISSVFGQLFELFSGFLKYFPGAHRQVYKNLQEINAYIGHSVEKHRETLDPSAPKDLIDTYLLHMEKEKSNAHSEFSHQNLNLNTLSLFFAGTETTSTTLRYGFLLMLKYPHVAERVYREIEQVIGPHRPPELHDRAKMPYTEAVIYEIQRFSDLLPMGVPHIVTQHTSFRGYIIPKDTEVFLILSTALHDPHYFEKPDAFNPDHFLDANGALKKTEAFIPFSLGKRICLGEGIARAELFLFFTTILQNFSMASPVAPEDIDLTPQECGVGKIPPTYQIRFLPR
endpoint label: IC50

[Q] Under Cytochrome P450 2B6 (Homo sapiens, UniProt P20813): IC50 value of CC(=O)N1CC2(CC(Nc3cc4c(cn3)C3(CC3)CN(C[C@H](O)CN3CCc5ccccc5C3)C4=O)C2)C1 ?
[A] > 50 µM
